system: UO-31 renal; experiment: NCI tumour cell line growth inhibition, 48 h
GI50 values, listed per item

The cases that follow already have their GI50 on record.
COC(=O)c1cc2c(o1)-c1nccc3c1c(nc1ccccc13)C2=O 5.49 µM
O=C1Nc2ccccc2/C1=C1\CCc2cc(O)ccc21 1.67 µM
CCc1ccc2c(c1)C(=O)c1c-2n(CCCN=[N+]=[N-])c(=O)c2cc([N+](=O)[O-])ccc12 > 50 µM
N=C(N)c1ccc(-c2ccc(-c3cccs3)s2)cc1 0.978 µM
ClCCN(CCCl)c1ccc(CNc2ccccc2)cc1 4.86 µM

Next up:
Note to self: GI50 recorded for `COc1ccc(-c2nc(-c3cc(OC)cc(OC)c3)[nH]c2-c2ccc(OC)cc2)cc1` was 5.72 µM
